- target: T1, GST-ZO-1 PDZ domain 2 (Rattus norvegicus (Rat)), A0A0G2
- T1 chain: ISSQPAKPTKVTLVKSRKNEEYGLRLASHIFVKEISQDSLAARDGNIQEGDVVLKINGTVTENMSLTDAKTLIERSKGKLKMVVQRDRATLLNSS
- assay_method_text: G' assay; note: key of the grades not given here
value_kind: Classification

RELVDRGEVRQFTLRHWLKV (modifications not checked) [Dopamine transporter] | 1 A450 class
PSSRASSRASSRPRPDDLEI (modifications not checked) [CX43 (connexin 43)] | 2 A450 class
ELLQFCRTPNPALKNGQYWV (modifications not checked) [CSPG4 (chondroitin sulfae proteoglycan 4, melanoma-associated)] | 4 A450 class
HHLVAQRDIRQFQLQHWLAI (modifications not checked) [noradrenaline transporter] | 2 A450 class
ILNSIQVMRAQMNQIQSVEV (modifications not checked) [ephrin B2] | 2 A450 class
TEGNESSEATSPVNAIYSLA (modifications not checked) [neurofascin (chicken)] | 1 A450 class
HDFRRAFKKILARGDRKRIV (modifications not checked) [alpha-2A Adrenergic receptor] | 4 A450 class
